tested on: NKG2A+/NKG2C− NK cells; experiment: NK cell activation markers in NKG2A+/NKG2C- NK cells incubated with peptide and K562 expressing HLA-E (inhibition); assay type: cell-based, human; settings: NKG2A+/NKG2C- NK cells, K562/HLA-E, Trial 5
Where no end group is shown, it is not given here.
The label depends only on percentage of CCL3+ NK cells: Condition met if it is at least 40%, Condition not met if it is smaller.

1) VNPGRSLFL [human5, VNPGRSLFL] | Condition met
2) VMAPQSLLL [VMAPQSLLL (PQS), negative control peptide, reference compound] | Condition met
3) NMPARTVLF [human14, peptide MTREX 490-498 derived from the human proteome] | Condition not met
4) TGPWRSLWI [human3, TGPWRSLWI] | Condition met
5) VMAPRTLIL [VMAPRTLIL (LIL), positive control peptide, reference compound] | Condition not met

* * *

binding of peptide-HLA-E complex to CD94/NKG2C normalized to a fitted Rmax listing for selected sequences.
molecular target: CD94/NKG2C (Homo sapiens, UniProt P26717+Q13241); experiment: Steady-state surface plasmon resonance of peptide-HLA-E complex with CD94/NKG2C; type: binding; conditions: CD94/NKG2C concentration 102.4 μM
Sequence (P26717 94-231 limits assumed): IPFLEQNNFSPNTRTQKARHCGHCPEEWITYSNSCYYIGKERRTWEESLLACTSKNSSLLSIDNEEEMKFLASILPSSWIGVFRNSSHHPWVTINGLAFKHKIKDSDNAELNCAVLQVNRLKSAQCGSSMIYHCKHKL
Sequence (Q13241 32-179 limits assumed): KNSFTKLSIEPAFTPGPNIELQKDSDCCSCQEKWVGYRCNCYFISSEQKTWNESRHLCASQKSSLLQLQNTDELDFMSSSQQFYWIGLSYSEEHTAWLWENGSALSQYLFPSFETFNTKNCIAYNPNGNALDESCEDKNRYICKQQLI
Where no end group is shown, it is not given here.
MEASUREMENT NAME: binding of peptide-HLA-E complex to CD94/NKG2C normalized to a fitted Rmax

1) TGPWRSLWI [human3, TGPWRSLWI] | 0.537
2) TLPKRGLFL [human2, TLPKRGLFL] | 0.867
3) TAPARTMFL [human13, TAPARTMFL] | 0.904
4) QMPSRSLLF [human1, QMPSRSLLF] | 0.912
5) VNPGRSLFL [human5, VNPGRSLFL] | 0.983

* * *

biological target: CD94/NKG2A (Homo sapiens, UniProt P26715+Q13241); assay: Steady-state surface plasmon resonance of peptide-HLA-E complex with CD94/NKG2A; format: binding; details: CD94/NKG2A concentration 1.6 μM
Sequence (P26715 94-233 limits assumed): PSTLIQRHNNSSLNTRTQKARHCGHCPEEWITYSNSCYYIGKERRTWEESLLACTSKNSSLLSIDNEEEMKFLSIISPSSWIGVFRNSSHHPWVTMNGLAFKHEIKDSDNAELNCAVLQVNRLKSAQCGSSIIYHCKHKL
Sequence (Q13241 32-179 limits assumed): as the sequence (Q13241 32-179 limits assumed) above
Where no end group is shown, it is not given here.
MEASUREMENT NAME: binding of peptide-HLA-E complex to CD94/NKG2A normalized to a fitted Rmax

1) TGPWRSLWI [human3, TGPWRSLWI] | 0.086
2) QMPSRSLLF [human1, QMPSRSLLF] | 0.349
3) TLPKRGLFL [human2, TLPKRGLFL] | 0.293
4) TAPARTMFL [human13, TAPARTMFL] | 0.191
5) VNPGRSLFL [human5, VNPGRSLFL] | 0.739

* * *

binding of peptide-HLA-E complex to CD94/NKG2A normalized to a fitted Rmax listing for selected sequences.
biological target: CD94/NKG2A (Homo sapiens, UniProt P26715+Q13241); experiment: Steady-state surface plasmon resonance of peptide-HLA-E complex with CD94/NKG2A; assay type: binding; details: CD94/NKG2A concentration 12.8 μM
Where no end group is shown, it is not given here.
MEASUREMENT NAME: binding of peptide-HLA-E complex to CD94/NKG2A normalized to a fitted Rmax

1. TGPWRSLWI [human3, TGPWRSLWI] | 0.336
2. TLPKRGLFL [human2, TLPKRGLFL] | 0.766
3. QMPSRSLLF [human1, QMPSRSLLF] | 0.798
4. TAPARTMFL [human13, TAPARTMFL] | 0.558
5. VNPGRSLFL [human5, VNPGRSLFL] | 1.018

* * *

percentage CCL3+ NK cells listing for selected sequences.
test system: NKG2A−/NKG2C− NK cells; test: NK cell activation markers in control NKG2A-/NKG2C- NK cells incubated with peptide and K562 expressing HLA-E; format: cell-based, human; conditions: Trial 6
Where no end group is shown, it is not given here.
MEASUREMENT NAME: percentage CCL3+ NK cells (%)

1) TLPERTLYL [human7, peptide ECEL1 269-277 derived from the human proteome] | 22.6
2) ILTDRSLWL [human4, peptide FBXO41 670-678 derived from the human proteome] | 25.1
3) TAPARTMFL [human13, TAPARTMFL] | 27.4
4) VMAPRTLIL [VMAPRTLIL (LIL), positive control peptide, reference compound] | 21.4
5) TLPKRGLFL [human2, TLPKRGLFL] | 24.6
6) VLPHRTQFL [CMV1, novel CMV-derived peptide UL120 72-80, Merlin] | 19.1
7) VNPGRSLFL [human5, VNPGRSLFL] | 22
8) VMPPRTLLL [human15, peptide HLA-A 3-11 derived from the human proteome] | 26.4
9) QMPSRSLLF [human1, QMPSRSLLF] | 24.1
10) TGPWRSLWI [human3, TGPWRSLWI] | 26.5

* * *

target: CD94/NKG2A (Homo sapiens, UniProt P26715+Q13241); assay: Steady-state surface plasmon resonance of peptide-HLA-E complex with CD94/NKG2A; type: binding; conditions: CD94/NKG2A concentration 102.4 μM
Where no end group is shown, it is not given here.
Please use label 1 for binding of peptide-HLA-E complex to CD94/NKG2A normalized to a fitted Rmax under 1 and label 0 for everything else, ties included.

1. TGPWRSLWI [human3, TGPWRSLWI] | label 1
2. TLPKRGLFL [human2, TLPKRGLFL] | label 1
3. TAPARTMFL [human13, TAPARTMFL] | label 1
4. VNPGRSLFL [human5, VNPGRSLFL] | label 0

* * *

Molecular target: CD94/NKG2C (Homo sapiens, UniProt P26717+Q13241)
Assay: Steady-state surface plasmon resonance of peptide-HLA-E complex with CD94/NKG2C
Assay type: binding
Conditions: steady-state SPR; CD94/NKG2C analyte concentration 51.2 μM
Description: Binding affinity of novel peptides linked to HLA-E was determined using surface plasmon resonance (SPR), a methodology used to study protein-protein interactions (Tables 15-19). […] KD values calculated by Biacore software are reported. Rmax, fit values were calculated by Biacore software. Rmax, theoretical values were calculated using the analyte/ligand mass ratio (0.66) multiplied by the amount of ligand coupled to the chip.
Where no end group is shown, it is not given here.
MEASUREMENT NAME: Binding of peptide-HLA-E complexes to CD94/NKG2C normalized to a theoretical Rmax

1. TGPWRSLWI [human3, TGPWRSLWI] | 0.135
2. TLPKRGLFL [human2, TLPKRGLFL] | 0.555
3. TAPARTMFL [human13, TAPARTMFL] | 0.552
4. VNPGRSLFL [human5, VNPGRSLFL] | 0.366
5. QMPSRSLLF [human1, QMPSRSLLF] | 0.511

* * *

biological target: CD94/NKG2A (Homo sapiens, UniProt P26715+Q13241); experiment: Steady-state surface plasmon resonance of peptide-HLA-E complex with CD94/NKG2A; type: binding; conditions: steady-state SPR; CD94/NKG2A analyte concentration 0.000 μM
Where no end group is shown, it is not given here.
Binding of peptide-HLA-E complexes to CD94/NKG2A normalized to a theoretical Rmax listing for selected sequences.
MEASUREMENT NAME: Binding of peptide-HLA-E complexes to CD94/NKG2A normalized to a theoretical Rmax

1) TLPKRGLFL [human2, TLPKRGLFL] | −0.005
2) TGPWRSLWI [human3, TGPWRSLWI] | 0.004
3) QMPSRSLLF [human1, QMPSRSLLF] | −0.005
4) TAPARTMFL [human13, TAPARTMFL] | 0.006
5) VNPGRSLFL [human5, VNPGRSLFL] | −0.001

* * *

target: CD94/NKG2C (Homo sapiens, UniProt P26717+Q13241); assay: Steady-state surface plasmon resonance of peptide-HLA-E complex with CD94/NKG2C; assay type: binding; details: CD94/NKG2C concentration 1.6 μM
Where no end group is shown, it is not given here.
The label depends only on binding of peptide-HLA-E complex to CD94/NKG2C normalized to a fitted Rmax: 1 (yes) if it is at least 0.09, 0 (no) if it is smaller.

1. TGPWRSLWI [human3, TGPWRSLWI] | 0 (no)
2. VNPGRSLFL [human5, VNPGRSLFL] | 1 (yes)
3. QMPSRSLLF [human1, QMPSRSLLF] | 1 (yes)
4. TAPARTMFL [human13, TAPARTMFL] | 1 (yes)

* * *

tested on: NKG2A+/NKG2C− NK cells; test: NK cell activation markers in NKG2A+/NKG2C- NK cells incubated with peptide and K562 expressing HLA-E (inhibition); type: cell-based, human; details: NKG2A+/NKG2C- NK cells, K562/HLA-E, Trial 2
Where no end group is shown, it is not given here.
Classes are defined on percentage of TNF+ NK cells with ranges low end: < 0.3%; middle: ≥ 0.3% and < 5%; high end: ≥ 5%

1) VMPPRTLLL [human15, peptide HLA-A 3-11 derived from the human proteome] | low end
2) QMPSRSLLF [human1, QMPSRSLLF] | middle
3) NMPARTVLF [human14, peptide MTREX 490-498 derived from the human proteome] | middle
4) VMAPRTLIL [VMAPRTLIL (LIL), positive control peptide, reference compound] | middle
5) TAPARTMFL [human13, TAPARTMFL] | high end
6) ILTDRSLWL [human4, peptide FBXO41 670-678 derived from the human proteome] | middle
7) TLPERTLYL [human7, peptide ECEL1 269-277 derived from the human proteome] | low end
8) RMPPRSVLL [human12] | low end
9) VMAPQSLLL [VMAPQSLLL (PQS), negative control peptide, reference compound] | high end
10) VMPGRTLCF [human11, peptide TACR3 226-234 derived from the human proteome] | low end
11) FLPNRSLLF [human8, peptide SLC52A3 354-362 derived from the human proteome] | middle
12) VLPHRTQFL [CMV1, novel CMV-derived peptide UL120 72-80, Merlin] | middle
13) VNPGRSLFL [human5, VNPGRSLFL] | high end
14) TGPWRSLWI [human3, TGPWRSLWI] | high end
15) TLPKRGLFL [human2, TLPKRGLFL] | middle
